Assay Procedure: 39-week oral (gavage) toxicity/toxicokinetic study with 13-week treatment-free recovery period in cynomolgus monkeys
Assay type: in vivo, cynomolgus monkeys (Macaca fascicularis)
Test Parameters: female, cynomolgus monkey, plasma, po, 50 mg/kg/day, Day 273 (Week 39); 50 mg/kg/d; females; mean (SD)
Readout: t max (h)
Express your answer in h, writing the number without its unit.

According to the records, this compound CCOC(=O)N1c2ccc(C(F)(F)F)cc2C(N(Cc2cc(C(F)(F)F)cc(C(F)(F)F)c2)c2ncc(OCCCC(=O)O)cn2)CC1CC (stereo not shown) displays t max of 6.6

----------
Assay Procedure: 39-week oral (gavage) toxicity/toxicokinetic study with 13-week treatment-free recovery period in cynomolgus monkeys
Format: in vivo, cynomolgus monkeys (Macaca fascicularis)
Test Parameters: male, cynomolgus monkey, plasma, po, 20 mg/kg/day, Day 1; 20 mg/kg/d; males; mean (SD)
Readout: t max (h)
Express your answer in h, writing the number without its unit.

According to the records, this compound CCOC(=O)N1c2ccc(C(F)(F)F)cc2C(N(Cc2cc(C(F)(F)F)cc(C(F)(F)F)c2)c2ncc(OCCCC(=O)O)cn2)CC1CC (stereo not shown) displays t max of 2.5

----------
Assay Procedure: ROSE2 Phase II trial, plasma concentrations of obicetrapib
Format: in vivo, humans
Test Parameters: both sexes, human, plasma, oral, Obicetrapib 10 mg + high‐intensity statin; Week 12 (EOT); on‐treatment PK population; read-out: Mean (SD) Plasma Level
Procedure: The PK parameters and the effect of food on the bioavailability of obicetrapib in humans have been examined in both Phase I[9] (TA‐8995‐09 CSR, NewAmsterdam Pharma) and Phase II trials.[10], [11], [12], [13] The trials were performed in accordance with the Declaration of Helsinki, Good Clinical Practice Guidelines, and applicable regulatory requirements. […] PK parameters were determined using WinNonlin software, version 4.1 or higher (Pharsight/Certara Corporation, USA). […]
Readout: concentration at 12 weeks (ng/mL)
Express your answer in ng/mL, writing the number without its unit.

According to the records, this compound CCOC(=O)N1c2ccc(C(F)(F)F)cc2C(N(Cc2cc(C(F)(F)F)cc(C(F)(F)F)c2)c2ncc(OCCCC(=O)O)cn2)CC1CC (stereo not shown) displays concentration at 12 weeks of 387

----------
Assay Procedure: 39-week oral (gavage) toxicity/toxicokinetic study with 13-week treatment-free recovery period in cynomolgus monkeys
Format: in vivo, cynomolgus monkeys (Macaca fascicularis)
Test Parameters: male, cynomolgus monkey, plasma, po, 50 mg/kg/day, Day 273 (Week 39); 50 mg/kg/d; males; mean
Readout: Cmax (ng/mL)
Express your answer in ng/mL, writing the number without its unit.

According to the records, this compound CCOC(=O)N1c2ccc(C(F)(F)F)cc2C(N(Cc2cc(C(F)(F)F)cc(C(F)(F)F)c2)c2ncc(OCCCC(=O)O)cn2)CC1CC (stereo not shown) [Obicetrapib] displays Cmax of 9210

----------
Assay Procedure: 39-week oral (gavage) toxicity/toxicokinetic study with 13-week treatment-free recovery period in cynomolgus monkeys
Type: in vivo, cynomolgus monkeys (Macaca fascicularis)
Test Parameters: female, cynomolgus monkey, plasma, po, 50 mg/kg/day, Day 273 (Week 39); 50 mg/kg/d; females; mean (SD); does not include data from one outlier; read-out: t ½ (elimination half‐life) (converted)
Readout: half-life (h)
Express your answer in h, writing the number without its unit.

According to the records, this compound CCOC(=O)N1c2ccc(C(F)(F)F)cc2C(N(Cc2cc(C(F)(F)F)cc(C(F)(F)F)c2)c2ncc(OCCCC(=O)O)cn2)CC1CC (stereo not shown) [Obicetrapib] displays half-life of 7.4

----------
Assay Procedure: 39-week oral (gavage) toxicity/toxicokinetic study with 13-week treatment-free recovery period in cynomolgus monkeys
Type: in vivo, cynomolgus monkeys (Macaca fascicularis)
Test Parameters: male, cynomolgus monkey, plasma, po, 10 mg/kg/day, Day 273 (Week 39); 10 mg/kg/d; males; mean (SD); read-out: t ½ (elimination half‐life) (converted)
Readout: half-life (h)
Express your answer in h, writing the number without its unit.

According to the records, this compound CCOC(=O)N1c2ccc(C(F)(F)F)cc2C(N(Cc2cc(C(F)(F)F)cc(C(F)(F)F)c2)c2ncc(OCCCC(=O)O)cn2)CC1CC (stereo not shown) [Obicetrapib] displays half-life of 11

----------
Assay Procedure: 39-week oral (gavage) toxicity/toxicokinetic study with 13-week treatment-free recovery period in cynomolgus monkeys
Format: in vivo, cynomolgus monkeys (Macaca fascicularis)
Test Parameters: female, cynomolgus monkey, plasma, po, 10 mg/kg/day; Day 1; 10 mg/kg/d; females; mean; read-out: AUC(0–24) (converted)
Protocol: CETP is present and active in non‐human primates, rabbits, and hamsters, but is absent in most other animal species, including mice, rats, and dogs.[2], [31], [32] […] Individual body weights were recorded once weekly (including Day 1 before the start of dosing) from time of allocation and on the day of necropsy. […]
Readout: AUC(0-t) (ng·h/mL)
Express your answer in ng·h/mL, writing the number without its unit.

According to the records, this compound CCOC(=O)N1c2ccc(C(F)(F)F)cc2C(N(Cc2cc(C(F)(F)F)cc(C(F)(F)F)c2)c2ncc(OCCCC(=O)O)cn2)CC1CC (stereo not shown) displays AUC(0-t) of 29800

----------
Assay Procedure: 39-week oral (gavage) toxicity/toxicokinetic study with 13-week treatment-free recovery period in cynomolgus monkeys
Format: in vivo, cynomolgus monkeys (Macaca fascicularis)
Test Parameters: male, cynomolgus monkey, plasma, po, 10 mg/kg/day; Day 1; 10 mg/kg/d; males; mean; read-out: AUC(0–24) (converted)
Readout: AUC(0-t) (ng·h/mL)
Express your answer in ng·h/mL, writing the number without its unit.

According to the records, this compound CCOC(=O)N1c2ccc(C(F)(F)F)cc2C(N(Cc2cc(C(F)(F)F)cc(C(F)(F)F)c2)c2ncc(OCCCC(=O)O)cn2)CC1CC (stereo not shown) displays AUC(0-t) of 29300

----------
Assay Procedure: 39-week oral (gavage) toxicity/toxicokinetic study with 13-week treatment-free recovery period in cynomolgus monkeys
Assay type: in vivo, cynomolgus monkeys (Macaca fascicularis)
Test Parameters: male, cynomolgus monkey, plasma, po, 10 mg/kg/day, Day 1; 10 mg/kg/d; males; mean (SD)
Readout: t max

According to the records, this compound CCOC(=O)N1c2ccc(C(F)(F)F)cc2C(N(Cc2cc(C(F)(F)F)cc(C(F)(F)F)c2)c2ncc(OCCCC(=O)O)cn2)CC1CC (stereo not shown) [Obicetrapib] displays t max of 5 h

----------
Assay Procedure: 39-week oral (gavage) toxicity/toxicokinetic study with 13-week treatment-free recovery period in cynomolgus monkeys
Format: in vivo, cynomolgus monkeys (Macaca fascicularis)
Test Parameters: male, cynomolgus monkey, plasma, po, 20 mg/kg/day, Day 1; 20 mg/kg/d; males; mean (SD); read-out: t ½ (elimination half‐life) (converted)
Readout: half-life (h)
Express your answer in h, writing the number without its unit.

According to the records, this molecule CCOC(=O)N1c2ccc(C(F)(F)F)cc2C(N(Cc2cc(C(F)(F)F)cc(C(F)(F)F)c2)c2ncc(OCCCC(=O)O)cn2)CC1CC (stereo not shown) displays half-life of 6.9

----------
Assay Procedure: Phase I food effect trial on obicetrapib bioavailability (TA‐8995‐09)
Assay type: in vivo, humans
Test Parameters: both sexes, human, plasma, oral, 10 mg, 10 mg single dose; Fed (high‐fat, high‐calorie breakfast); n = 23
Readout: Cmax (ng/mL)
Express your answer in ng/mL, writing the number without its unit.

According to the records, this compound CCOC(=O)N1c2ccc(C(F)(F)F)cc2C(N(Cc2cc(C(F)(F)F)cc(C(F)(F)F)c2)c2ncc(OCCCC(=O)O)cn2)CC1CC (stereo not shown) displays Cmax of 222

----------
Assay Procedure: TULIP Phase II trial, plasma concentrations of obicetrapib
Format: in vivo, humans
Test Parameters: both sexes, human, plasma, oral, Obicetrapib 10 mg + rosuvastatin 10 mg; Week 12 (EOT); read-out: Mean (SD) Plasma Level
Readout: concentration at 12 weeks (ng/mL)
Express your answer in ng/mL, writing the number without its unit.

According to the records, this molecule CCOC(=O)N1c2ccc(C(F)(F)F)cc2C(N(Cc2cc(C(F)(F)F)cc(C(F)(F)F)c2)c2ncc(OCCCC(=O)O)cn2)CC1CC (stereo not shown) displays concentration at 12 weeks of 402

----------
Assay Procedure: 39-week oral (gavage) toxicity/toxicokinetic study with 13-week treatment-free recovery period in cynomolgus monkeys
Format: in vivo, cynomolgus monkeys (Macaca fascicularis)
Test Parameters: both sexes, cynomolgus monkey, fat homogenate, oral; after 13‐week treatment‐free period; 50 mg/kg/day; all four recovery monkeys; read-out: obicetrapib in fat homogenate (below LLOQ)
Readout: concentration at 13 weeks after last dose

According to the records, this compound CCOC(=O)N1c2ccc(C(F)(F)F)cc2C(N(Cc2cc(C(F)(F)F)cc(C(F)(F)F)c2)c2ncc(OCCCC(=O)O)cn2)CC1CC (stereo not shown) [Obicetrapib] displays concentration at 13 weeks after last dose of < 0.5 ng/mL

----------
Assay Procedure: 39-week oral (gavage) toxicity/toxicokinetic study with 13-week treatment-free recovery period in cynomolgus monkeys
Type: in vivo, cynomolgus monkeys (Macaca fascicularis)
Test Parameters: female, cynomolgus monkey, plasma, po, 50 mg/kg/day, females in the high dose group (50 mg/kg/day); Week 39; read-out: mean t 1/2 including the outlier (converted)
Protocol: CETP is present and active in non‐human primates, rabbits, and hamsters, but is absent in most other animal species, including mice, rats, and dogs.[2], [31], [32] […] Individual body weights were recorded once weekly (including Day 1 before the start of dosing) from time of allocation and on the day of necropsy. […]
Readout: half-life (h)
Express your answer in h, writing the number without its unit.

According to the records, this compound CCOC(=O)N1c2ccc(C(F)(F)F)cc2C(N(Cc2cc(C(F)(F)F)cc(C(F)(F)F)c2)c2ncc(OCCCC(=O)O)cn2)CC1CC (stereo not shown) [Obicetrapib] displays half-life of 109

Data origin, for the record: paper PMC11489133
